Species on record: Rattus norvegicus
assay method text: DrugMatrix - Regimen: Daily Repeat
Assay type: toxicity, organism-based, Sprague-Dawley
Parameters: regimen Daily Repeat, gender Male, age 6-8 weeks
condition context: in vivo, iv, 0 mg/kg, 120 h, tissue Plasma, dose level Control, time 5 day, vehicle 100 % SALINE
Starred links: 1 amine or outer side, 2 acyl side, 3 side chain; linkers in the order of their positions; H or OH if unused. Positions of bridges follow the written chain, without caps; N, C: chain ends. Non-standard residues stand in square brackets, D forms with d. Residues, ends and D or L forms follow the SMILES beside them. Chains are numbered I, II in the order given. Actinocin(9to1) = Cc1c2oc3c(C)ccc(C(=O)[*:1])c3nc-2c(C(=O)[*:2])c(N)c1=O; NMeV = CN[C@H](C(=O)O)C(C)C; Sar = CNCC(=O)O
Reported LACTATE DEHYDROGENASE values are given for each entry in this list.
Just the number please, in u/L, no unit attached.

Here are 3 molecules together with their reported answers.
Value of LACTATE DEHYDROGENASE reported for the molecule CC[C@]1(O)C[C@H]2CN(CCc3c([nH]c4ccccc34)[C@@](C(=O)OC)(c3cc4c(cc3OC)N(C=O)[C@H]3[C@@](O)(C(=O)OC)[C@H](OC(C)=O)[C@]5(CC)C=CCN6CC[C@]43[C@@H]65)C2)C1 [VINCRISTINE] is 111.5

Value of LACTATE DEHYDROGENASE reported for the molecule Cc1ccc(N(CC2=NCCN2)c2cccc(O)c2)cc1 [PHENTOLAMINE] is 388.83

Value of LACTATE DEHYDROGENASE reported for the molecule `COc1cc2c3cc1Oc1cc(ccc1O)C[C@@H]1c4c(cc(OC)c(O)c4Oc4ccc(cc4)C[C@@H]3N(C)CC2)CC[N+]1(C)C.[Cl-]` is 540.33

Attention now turns to another entry.
Value of LACTATE DEHYDROGENASE reported for the molecule Cc1c2oc3c(C)ccc(C(=O)N[C@@H]4C(=O)N[C@H](C(C)C)C(=O)N5CCC[C@H]5C(=O)N(C)CC(=O)N(C)[C@@H](C(C)C)C(=O)O[C@@H]4C)c3nc-2c(C(=O)N[C@@H]2C(=O)N[C@H](C(C)C)C(=O)N3CCC[C@H]3C(=O)N(C)CC(=O)N(C)[C@@H](C(C)C)C(=O)O[C@@H]2C)c(N)c1=O [DACTINOMYCIN] (I: T[dV]P[Sar][NMeV] / II: T[dV]P[Sar][NMeV]; ester I:1-I:C, II:1-II:C; linker I:N-II:N via Actinocin(9to1)) is 502.17

* * *

Species on record: Rattus norvegicus
assay method text: DrugMatrix - Regimen: Daily Repeat
Format: toxicity, organism-based, Sprague-Dawley
Design: regimen Daily Repeat, gender Male, age 6-8 weeks
condition context: in vivo, po, 0 mg/kg, 120 h, tissue Plasma, route oral GAVAGE, dose level Control, time 5 day, vehicle .5 % CMC
measurement kind: CHLORIDE (MEQ/L)
Just the number please, in MEQ/L, no unit attached.

Here are 8 compounds together with their reported answers.
Value of CHLORIDE reported for the compound C1CCC(C(CC2CCCCN2)C2CCCCC2)CC1 (centres undefined) [PERHEXILINE] is 103

Value of CHLORIDE reported for the compound Cc1nc2n(c(=O)c1CCN1CCC(c3noc4cc(F)ccc34)CC1)CCCC2 [RISPERIDONE] is 108

Value of CHLORIDE reported for the compound CCOP(=S)(OCC)Oc1nc(Cl)c(Cl)cc1Cl [CHLORPYRIFOS] is 104.67

Value of CHLORIDE reported for the compound `CC(C)(C)NC(=O)[C@@H]1C[C@@H]2CCCC[C@@H]2CN1C[C@@H](O)[C@H](Cc1ccccc1)NC(=O)[C@H](CC(N)=O)NC(=O)c1ccc2ccccc2n1` is 101

Value of CHLORIDE reported for the compound OCCN(CCO)c1nc(N2CCCCC2)c2nc(N(CCO)CCO)nc(N3CCCCC3)c2n1 [DIPYRIDAMOLE] is 100.67

Value of CHLORIDE reported for the compound CN1CCN(CCCN2c3ccccc3Sc3ccc(Cl)cc32)CC1 [PROCHLORPERAZINE] is 100.67

Value of CHLORIDE reported for the compound Nc1ccn([C@H]2CC[C@@H](CO)O2)c(=O)n1 [ZALCITABINE] is 99

Value of CHLORIDE reported for the compound NC1=NC(=O)C(c2ccccc2)O1 (centres undefined) [PEMOLINE] is 104

Attention now turns to another entry.
Value of CHLORIDE reported for the compound ClC(Cl)Br [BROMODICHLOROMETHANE] is 100

* * *

Organism: Rattus norvegicus
assay method text: DrugMatrix - Regimen: Daily Repeat
Format: toxicity, organism-based, Sprague-Dawley
Design: regimen Daily Repeat, gender Male, age 6-8 weeks
condition context: in vivo, po, 0 mg/kg, […], tissue Blood, route oral GAVAGE, dose level Control, time 14 day, vehicle .5 % CMC
Reported LYMPHOCYTE values are given for each entry in this list.
Just the number please, in %, no unit attached.

Here are 3 compounds together with their reported answers.
Value of LYMPHOCYTE reported for the compound `ClC(Cl)Br` is 81

Value of LYMPHOCYTE reported for the compound `CCOP(=S)(OCC)Oc1nc(Cl)c(Cl)cc1Cl` is 79.03

Value of LYMPHOCYTE reported for the compound `ClC(Br)Br` is 81

Attention now turns to another entry.
Value of LYMPHOCYTE reported for the compound `COc1ccc(C(=O)Nc2c(Cl)c[n+]([O-])cc2Cl)c2ccc(C(F)(F)F)nc12` is 81.18

* * *

Species on record: Rattus norvegicus
assay method text: DrugMatrix - Regimen: Daily Repeat
Format: toxicity, organism-based, Sprague-Dawley
Set-up: regimen Daily Repeat, gender Male, age 6-8 weeks
condition context: in vivo, po, 0 mg/kg, 72 h, tissue Blood, route oral GAVAGE, dose level Control, time 3 day, vehicle 100 % WATER
Reported NUCLEATED RED BLOOD CELLS values are given for each entry in this list.

Here are 3 molecules together with their reported answers.
Value of NUCLEATED RED BLOOD CELLS reported for the molecule `C[C@H]1c2cccc(O)c2C(=O)C2=C(O)[C@]3(O)C(=O)C(C(N)=O)=C(O)[C@@H](N(C)C)[C@@H]3[C@@H](O)[C@@H]21.O` is 0 /100WBC

Value of NUCLEATED RED BLOOD CELLS reported for the molecule `CN(C)CCCN1c2ccccc2Sc2ccc(Cl)cc21` is 0 /100WBC

Value of NUCLEATED RED BLOOD CELLS reported for the molecule `Cn1cc[nH]c1=S` is 0.67 /100WBC

Next:
Value of NUCLEATED RED BLOOD CELLS reported for the molecule CC(O)CO (stereo not given) is 0.33 /100WBC

Value of NUCLEATED RED BLOOD CELLS reported for the molecule `C[C@H](CS)C(=O)N1CCC[C@H]1C(=O)O` is 0 /100WBC

* * *

Reported ABSOLUTE LYMPHOCYTE values are given for each entry in this list.
Species: Rattus norvegicus
assay method text: DrugMatrix - Regimen: Daily Repeat
Format: toxicity, organism-based, Sprague-Dawley
Design: regimen Daily Repeat, gender Male, age 6-8 weeks
condition context: in vivo, po, 0 mg/kg, 72 h, tissue Blood, route oral GAVAGE, dose level Control, time 3 day, vehicle .5 % CMC
Just the number please, in CELLS/uL, no unit attached.

Here are 3 molecules together with their reported answers.
Value of ABSOLUTE LYMPHOCYTE reported for the molecule ClC(Cl)Br [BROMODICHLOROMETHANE] is 13152.5

Value of ABSOLUTE LYMPHOCYTE reported for the molecule CCn1cc(C(=O)O)c(=O)c2cc(F)c(N3CCNCC3)cc21 [NORFLOXACIN] is 12269.67

Value of ABSOLUTE LYMPHOCYTE reported for the molecule CCCN1C[C@H](CSC)C[C@@H]2c3cccc4[nH]cc(c34)C[C@H]21 [PERGOLIDE] is 11670.5

Next:
Value of ABSOLUTE LYMPHOCYTE reported for the molecule Cc1ccc(/N=C/N(C)/C=N/c2ccc(C)cc2C)c(C)c1 [AMITRAZ] is 12269.67

Value of ABSOLUTE LYMPHOCYTE reported for the molecule COc1nc(C)nc(Cl)c1N=C1NCCN1 [MOXONIDINE] is 15937.67

* * *

Species: Rattus norvegicus
assay method text: DrugMatrix - Regimen: Daily Repeat
Assay type: toxicity, organism-based, Sprague-Dawley
Parameters: regimen Daily Repeat, gender Male, age 6-8 weeks
condition context: in vivo, iv, 0 mg/kg, 120 h, tissue Plasma, dose level Control, time 5 day, vehicle 100 % SALINE
Starred links: 1 amine or outer side, 2 acyl side, 3 side chain; linkers in the order of their positions; H or OH if unused. Positions of bridges follow the written chain, without caps; N, C: chain ends. Non-standard residues stand in square brackets, D forms with d. Residues, ends and D or L forms follow the SMILES beside them. Chains are numbered I, II in the order given. Actinocin(9to1) = Cc1c2oc3c(C)ccc(C(=O)[*:1])c3nc-2c(C(=O)[*:2])c(N)c1=O; NMeV = CN[C@H](C(=O)O)C(C)C; Sar = CNCC(=O)O
measurement kind: CHOLESTEROL (mg/dL)
Just the number please, in mg/dL, no unit attached.

Value of CHOLESTEROL reported for the compound `COc1cc2c3cc1Oc1cc(ccc1O)C[C@@H]1c4c(cc(OC)c(O)c4Oc4ccc(cc4)C[C@@H]3N(C)CC2)CC[N+]1(C)C.[Cl-]` is 63

Next:
Value of CHOLESTEROL reported for the compound Cc1c2oc3c(C)ccc(C(=O)N[C@@H]4C(=O)N[C@H](C(C)C)C(=O)N5CCC[C@H]5C(=O)N(C)CC(=O)N(C)[C@@H](C(C)C)C(=O)O[C@@H]4C)c3nc-2c(C(=O)N[C@@H]2C(=O)N[C@H](C(C)C)C(=O)N3CCC[C@H]3C(=O)N(C)CC(=O)N(C)[C@@H](C(C)C)C(=O)O[C@@H]2C)c(N)c1=O [DACTINOMYCIN] (I: T[dV]P[Sar][NMeV] / II: T[dV]P[Sar][NMeV]; ester I:1-I:C, II:1-II:C; linker I:N-II:N via Actinocin(9to1)) is 69.5

Value of CHOLESTEROL reported for the compound `Cc1ccc(N(CC2=NCCN2)c2cccc(O)c2)cc1` is 71.83

Value of CHOLESTEROL reported for the compound `CC[C@]1(O)C[C@H]2CN(CCc3c([nH]c4ccccc34)[C@@](C(=O)OC)(c3cc4c(cc3OC)N(C=O)[C@H]3[C@@](O)(C(=O)OC)[C@H](OC(C)=O)[C@]5(CC)C=CCN6CC[C@]43[C@@H]65)C2)C1` is 75.83
